Hey, just so you know, these numbers are from ChEMBL document CHEMBL2331408.

- Test system: Liver
- testDescription: Intrinsic clearance in mouse liver microsomes at 1 uM by LC/MS analysis
- Assay type: ADME, Microsome
- conditionInfo: microsomes, 1 µM
reportedProperty: Microsomal intrinsic clearance (CLint) (µL/min/mg)

Illustrative cases are given below, each with its answer.
{"compoundStructureString": "CCOC(=O)C1=C(C)N/C(=C/c2cc(C)n(-c3ccncc3)c2C)C1=O", "reportedProperty": "Microsomal intrinsic clearance (CLint)", "recordedMeasurement": 61}
{"compoundStructureString": "CCOC(=O)C1=C(C)N/C(=C/c2cc(C)n(-c3cccnc3)c2C)C1=O", "reportedProperty": "Microsomal intrinsic clearance (CLint)", "recordedMeasurement": 82}
{"compoundStructureString": "CCOC(=O)C1=C(C)N/C(=C/c2cc(C)n(-c3ccc(CN4CCCCC4)cc3)c2C)C1=O", "reportedProperty": "Microsomal intrinsic clearance (CLint)", "recordedMeasurement": 60}
{"compoundStructureString": "CC1=CC(=O)/C(=C\\c2cc(C)n(-c3ccccc3C(F)(F)F)c2C)N1", "reportedProperty": "Microsomal intrinsic clearance (CLint)", "recordedMeasurement": 23}

I. CCOC(=O)C1=C(C)N/C(=C/c2cc(C)n(-c3ccc(OC)cc3)c2C)C1=O
II. CC1=C(C(=O)OCc2ccccc2)C(=O)/C(=C\c2cc(C)n(-c3ccccc3C(F)(F)F)c2C)N1
QUERY: Quick check, higher Microsomal intrinsic clearance (CLint) between I and II ? Write down the label attached to your selection.
RESULT: II

P. CCOC(=O)C1=C(C)N/C(=C/c2cc(C)n(-c3ccc(CN4CCOCC4)cc3)c2C)C1=O
Q. CC1=C(C(=O)O)C(=O)/C(=C\c2cc(C)n(-c3ccccc3C(F)(F)F)c2C)N1
QUERY: Between P and Q , which one has the lower reported Microsomal intrinsic clearance (CLint) value? Write down the label attached to your selection.
RESULT: Q

a. CCOC(=O)C1=C(C)N/C(=C/c2cc(C)n(-c3cccc(OC)c3)c2C)C1=O
b. CCOC(=O)C1=C(C)N/C(=C/c2cc(C)n(Cc3ccc(C(F)(F)F)cc3)c2C)C1=O
c. CCOC(=O)C1=C(C)N/C(=C/c2cc(C)n(-c3ccc(S(=O)(=O)C(F)(F)F)cc3)c2C)C1=O
QUERY: Sort low-to-high on Microsomal intrinsic clearance (CLint), please. Would you mind listing the labels in the order asked for?
RESULT: c, b, a
(c: 58 µL/min/mg, b: 100 µL/min/mg, a: 150 µL/min/mg)

====

- Tested on: Liver
- testDescription: Intrinsic clearance in mouse liver microsomes at 1 uM by LC/MS analysis
- Format: ADME, Microsome
- conditionInfo: microsomes, 1 µM
reportedProperty: Microsomal intrinsic clearance (CLint) (µL/min/mg)

{"compoundStructureString": "CCOC(=O)C1=C(C)N/C(=C/c2cc(C)n(-c3cccc(C(F)(F)F)c3)c2C)C1=O", "reportedProperty": "Microsomal intrinsic clearance (CLint)", "recordedMeasurement": 97}
{"compoundStructureString": "CCOC(=O)C1=C(C)N/C(=C/c2cc(C)n(-c3ccc(SC)cc3)c2C)C1=O", "reportedProperty": "Microsomal intrinsic clearance (CLint)", "recordedMeasurement": 66}
{"compoundStructureString": "CC1=C(C(=O)OC(C)(C)C)C(=O)/C(=C\\c2cc(C)n(-c3ccccc3C(F)(F)F)c2C)N1", "reportedProperty": "Microsomal intrinsic clearance (CLint)", "recordedMeasurement": 86}

====

- System: Liver
- testDescription: Intrinsic clearance in mouse liver microsomes at 1 uM by LC/MS analysis
- Type: ADME, Microsome
- conditionInfo: microsomes, 1 µM
reportedProperty: Microsomal intrinsic clearance (CLint) (µL/min/mg)

{"compoundStructureString": "CCOC(=O)C1=C(C)N/C(=C/c2cc(CC)n(-c3ccccc3C(F)(F)F)c2CC)C1=O", "recordedMeasurement": 140}

1. CCOC(=O)C1=C(C)N/C(=C/c2ccn(-c3ccccc3C(F)(F)F)c2)C1=O
2. CCOC(=O)C1=C(C)N/C(=C/c2cc(C)n(-c3ccc(Cl)cc3)c2C)C1=O
QUERY: Between 1 and 2 , which one has the lower reported Microsomal intrinsic clearance (CLint) value? Write down the label attached to your selection.
RESULT: 2
(2: 72 µL/min/mg, 1: 160 µL/min/mg)
